procedure text: Cytotoxicity against human U937 cells assessed as cell viability at 20 ug/ml after 72 hrs by MTT assay
Type: cell-based, U-937
condition: read-out: Activity
Listing of recorded viability at 72 h, 20 ug/ml by entry.
Please give a number only; it is taken to be in %.

Examples from the recorded data:
# compound, result number
rows = [
    ("CC(C)(C)OC(=O)NCC(=O)OC1(C)c2ccccc2-c2c1c(-n1ccnc1)nc1ccc(Br)cc21 (centres undefined)", 28),
    ("CN(C)C(=O)O/N=C1\\c2ccccc2-c2c1c(N1CCN(c3ccccn3)CC1)nc1ccc(Br)cc21", 47),
    ("CN(C)C(=O)O/N=C1\\c2ccccc2-c2c1c(-n1ccnc1)nc1ccc(Br)cc21", 50),
]

Please look at the following compound next.
Quick one: viability at 72 h, 20 ug/ml for CC(C)(C)OC(=O)NC(Cc1ccccc1)C(=O)O/N=C1\c2ccccc2-c2c1c(N1CCN(c3ccccn3)CC1)nc1ccc(Br)cc21 (centres undefined) ?
73

All figures here come from ChEMBL document CHEMBL1799922.
